test system: NOMO1; assay: cell viability relative to DMSO control; higher = less cytotoxic; settings: RPMI 5 mM glucose + 10% dialyzed FBS; 48 h; 5.12 µM

[
  {
    "Compound": "Cc1nc(N)ncc1-c1nc(N2CCOCC2)c2sc(C(C)(C)O)cc2n1",
    "cell viability": "13.3%"
  },
  {
    "Compound": "Oc1ccc2ccccc2c1SSc1c(O)ccc2ccccc12",
    "cell viability": "96.3%"
  },
  {
    "Compound": "Cc1ccc(/C=N/NC(=O)c2ccccc2Oc2ccccc2)o1",
    "cell viability": "85.9%"
  },
  {
    "Compound": "COc1cc2ncn(-c3cc(OCc4ccccc4C(F)(F)F)c(C(N)=O)s3)c2cc1OC",
    "cell viability": "32.4%"
  },
  {
    "Compound": "CCOCC(O)COc1ccc(NC(=O)CC[S+](C)C)cc1 (stereo not given)",
    "cell viability": "95.3%"
  }
]

----------
AUC of viability dose-response curve values, listed per item
tested on: SEM cells; experiment: AUC of viability dose-response curve (% viability x log10 dose units); higher = less sensitive; details: HPLM + 10% dialyzed FBS; 48 h

[
  {
    "Molecule": "CC(C)(C)C1=CC(=C(NC(=O)C/2=C/NC3=C(C=CC=C3)C2=O)C=C1O)C(C)(C)C",
    "AUC of viability dose-response curve": 461
  },
  {
    "Molecule": "O=C(NCC1CCOCC1)c1cnc(Nc2ccc(Cl)cc2Cl)nc1C(F)(F)F",
    "AUC of viability dose-response curve": 425
  },
  {
    "Molecule": "C1CN\\2C[C@@H](\\N=C2S1)C3=CC=CC=C3",
    "AUC of viability dose-response curve": 459
  },
  {
    "Molecule": "O=C(NCc1ccccc1)c1csc(Nc2ccncn2)n1",
    "AUC of viability dose-response curve": 310
  },
  {
    "Molecule": "COC(=O)[C@H](c1ccccc1Cl)N1CCc2sccc2C1",
    "AUC of viability dose-response curve": 449
  },
  {
    "Molecule": "Nc1nc(NCCNc2ncc(-n3ccnc3)c(-c3ccc(Cl)cc3Cl)n2)ccc1[N+](=O)[O-]",
    "AUC of viability dose-response curve": 452
  },
  {
    "Molecule": "O=C1N\\C=N/C2=C1C=N[NH]2",
    "AUC of viability dose-response curve": 359
  },
  {
    "Molecule": "CCOCC(O)COc1ccc(NC(=O)CC[S+](C)C)cc1 (stereo not drawn)",
    "AUC of viability dose-response curve": 451
  },
  {
    "Molecule": "COc1cc(OC)c(C(=O)CCCN2CCCC2)c(OC)c1",
    "AUC of viability dose-response curve": 446
  },
  {
    "Molecule": "Nc1ccc([S+](=O)([O-])Nc2ncccn2)cc1",
    "AUC of viability dose-response curve": 460
  },
  {
    "Molecule": "OC[C@H]1OC(OC2=CC3=C(C(=C2)O)C(=O)\\C(=C/O3)C4=CC=C(O)C=C4)[C@H](O)[C@@H](O)[C@@H]1O (stereo partly drawn)",
    "AUC of viability dose-response curve": 408
  },
  {
    "Molecule": "COc1ccc(-c2ccc3cc(C(=O)O)ccc3c2)cc1C12CC3CC(CC(C3)C1)C2",
    "AUC of viability dose-response curve": 459
  },
  {
    "Molecule": "CCOC(=O)[C@@H](N)CCC(=O)N[C@@H](CSCc1ccccc1)C(=O)N[C@@H](C(=O)OCC)c1ccccc1",
    "AUC of viability dose-response curve": 466
  },
  {
    "Molecule": "C[C@H]1Oc2cc(cnc2N)-c2c(nn(C)c2C#N)CN(C)C(=O)c2ccc(F)cc21",
    "AUC of viability dose-response curve": 446
  },
  {
    "Molecule": "CCCCC[C@H](O)/C=C/[C@H]1[C@H](O)CC(=O)[C@@H]1CCCCCCC(=O)O",
    "AUC of viability dose-response curve": 402
  },
  {
    "Molecule": "C[N+]1(C)[C@@H]2CC(OC(=O)C(O)(c3cccs3)c3cccs3)C[C@H]1[C@@H]1O[C@@H]12 (stereo partly drawn)",
    "AUC of viability dose-response curve": 462
  },
  {
    "Molecule": "O=C(Nc1cccc(Br)c1)c1cccc([S+](=O)([O-])N2CCCCCC2)c1",
    "AUC of viability dose-response curve": 447
  },
  {
    "Molecule": "CN(C(Cc1ccc(O[S+](=O)([O-])c2cccc3cnccc23)cc1)C(=O)N1CCN(c2ccccc2)CC1)[S+](=O)([O-])c1cccc2cnccc12 (stereo not drawn)",
    "AUC of viability dose-response curve": 436
  },
  {
    "Molecule": "O=[S+]([O-])(NCCNC/C=C/c1ccc(Br)cc1)c1cccc2cnccc12",
    "AUC of viability dose-response curve": 377
  },
  {
    "Molecule": "Oc1ccc(-c2ccc(-c3cc(Nc4cccc(CNC5CC5)c4)[nH]n3)cc2)c(O)c1",
    "AUC of viability dose-response curve": 321
  },
  {
    "Molecule": "Clc1ccccc1C(c1ccccc1)(c1ccccc1)n1ccnc1",
    "AUC of viability dose-response curve": 425
  },
  {
    "Molecule": "COc1ccc(C2(C#N)CCC(C(=O)O)CC2)cc1OC1CCCC1 (stereo not drawn)",
    "AUC of viability dose-response curve": 439
  },
  {
    "Molecule": "CN1CCC(CC1)=C2C3=C(C=CC=C3)\\C=C/C4=C2C=CC=C4",
    "AUC of viability dose-response curve": 469
  },
  {
    "Molecule": "CN1CCN(CCCN2c3ccccc3Sc3ccc(Cl)cc32)CC1.O=C(O)/C=C\\C(=O)O.O=C(O)/C=C\\C(=O)O",
    "AUC of viability dose-response curve": 471
  },
  {
    "Molecule": "COC(=O)C/1=C(C)/N/C(=C(\\C1C2=CC(=CC=C2)[N+]([O-])=O)C(=O)OCCCN3CCC(CC3)(C4=CC=CC=C4)C5=CC=CC=C5)C (stereo not drawn)",
    "AUC of viability dose-response curve": 458
  },
  {
    "Molecule": "CC(S)C(=O)NCC(=O)O (stereo not drawn)",
    "AUC of viability dose-response curve": 438
  },
  {
    "Molecule": "CN(C)[C@@H](CCOc1cccc2ccccc12)c1ccccc1",
    "AUC of viability dose-response curve": 400
  },
  {
    "Molecule": "CSCC[C@H](NC(=O)[C@H](Cc1c[nH]c2ccccc12)NC(=O)CCNC(=O)OC(C)(C)C)C(=O)N[C@@H](CC(=O)O)C(=O)N[C@@H](Cc1ccccc1)C(N)=O",
    "AUC of viability dose-response curve": 460
  },
  {
    "Molecule": "Cc1ccc(/C=N/NC(=O)c2ccccc2Oc2ccccc2)o1",
    "AUC of viability dose-response curve": 452
  },
  {
    "Molecule": "COc1cc2ncnc(Nc3cccc(Cl)c3)c2cc1OC",
    "AUC of viability dose-response curve": 287
  },
  {
    "Molecule": "C[C@H](Cc1ccc(O)c(O)c1)[C@@H](C)Cc1ccc(O)c(O)c1",
    "AUC of viability dose-response curve": 394
  },
  {
    "Molecule": "CCc1cc(-c2n[nH]c(C)c2-c2ccc3c(c2)OCCO3)c(O)cc1O",
    "AUC of viability dose-response curve": 422
  },
  {
    "Molecule": "NC(CO)C(=O)NNCc1ccc(O)c(O)c1O (stereo not drawn)",
    "AUC of viability dose-response curve": 450
  }
]

----------
Reported AUC of viability dose-response curve values for a set of compounds
system: P12-Ichikawa; assay: AUC of viability dose-response curve (% viability x log10 dose units); higher = less sensitive; details: RPMI 5 mM glucose + 10% dialyzed FBS; 48 h

[
  {
    "Compound": "COc1ccc2[nH]cc(CCNC(C)=O)c2c1",
    "AUC of viability dose-response curve": 444
  },
  {
    "Compound": "CC(C)(C)C1=CC(=C(NC(=O)C/2=C/NC3=C(C=CC=C3)C2=O)C=C1O)C(C)(C)C",
    "AUC of viability dose-response curve": 455
  },
  {
    "Compound": "NC\\1=N\\C(=O)N(\\C=C1F)[C@H]2C[C@H](O)[C@@H](CO)O2",
    "AUC of viability dose-response curve": 264
  },
  {
    "Compound": "C[N+]1(C)[C@@H]2CC(OC(=O)C(O)(c3cccs3)c3cccs3)C[C@H]1[C@@H]1O[C@@H]12 (stereo not given in full)",
    "AUC of viability dose-response curve": 468
  },
  {
    "Compound": "NC(CO)C(=O)NNCc1ccc(O)c(O)c1O (stereo not given)",
    "AUC of viability dose-response curve": 428
  },
  {
    "Compound": "C[C@H]1Oc2cc(cnc2N)-c2c(nn(C)c2C#N)CN(C)C(=O)c2ccc(F)cc21",
    "AUC of viability dose-response curve": 461
  },
  {
    "Compound": "CC[C@H]1OC(=O)[C@H](C)[C@@H](O[C@H]2C[C@@](C)(OC)[C@@H](O)[C@H](C)O2)[C@H](C)[C@@H](O[C@@H]2O[C@H](C)C[C@H](N(C)C)[C@H]2O)[C@](C)(O)C[C@@H](C)CN(C)[C@H](C)[C@@H](O)[C@]1(C)O",
    "AUC of viability dose-response curve": 459
  },
  {
    "Compound": "NNc1nncc2ccccc12",
    "AUC of viability dose-response curve": 463
  },
  {
    "Compound": "CC/1=C(\\CCN2CCC(CC2)C3=NOC4=C3C=CC(=C4)F)C(=O)N/5CCCCC5=N1",
    "AUC of viability dose-response curve": 476
  },
  {
    "Compound": "CC(C)(C)OC(=O)Nc1ccc(-c2cc(C(=O)NCCCCCCC(=O)NO)no2)cc1",
    "AUC of viability dose-response curve": 276
  },
  {
    "Compound": "COc1c(O)cc2c(c1O)[C@@H]1O[C@H](CO)[C@@H](O)[C@H](O)[C@H]1OC2=O",
    "AUC of viability dose-response curve": 427
  },
  {
    "Compound": "N[C@@H](Cc1ccc(O)c(O)c1)C(=O)O",
    "AUC of viability dose-response curve": 466
  },
  {
    "Compound": "CC1=C(/C=C/C(C)=C/C=C/C(C)=C/C(=O)O)C(C)(C)CCC1",
    "AUC of viability dose-response curve": 467
  },
  {
    "Compound": "O=C1CCCC(=O)C1C(=O)c1ccc(C(F)(F)F)cc1[N+](=O)[O-]",
    "AUC of viability dose-response curve": 468
  },
  {
    "Compound": "CC(C)(Sc1ccc(CCN(CCCCC2CCCCC2)C(=O)NC2CCCCC2)cc1)C(=O)O",
    "AUC of viability dose-response curve": 460
  },
  {
    "Compound": "Oc1ccc([C@@H]2Oc3ccc(O)cc3[C@@H]3CCC[C@@H]32)cc1",
    "AUC of viability dose-response curve": 349
  },
  {
    "Compound": "CC(C)n1cnc2c(NCCc3ccc(O)cc3)nc(-c3csc4ccccc34)nc21",
    "AUC of viability dose-response curve": 422
  },
  {
    "Compound": "C[C@]\\12CCC(=O)\\C=C1[C@@H]3C[C@@H]3[C@@H]4[C@@H]2CC[C@@]5(C)[C@H]4[C@@H]6C[C@@H]6[C@@]57CCC(=O)O7",
    "AUC of viability dose-response curve": 471
  },
  {
    "Compound": "CCCCC[C@H](O)/C=C/[C@H]1[C@H](O)CC(=O)[C@@H]1CCCCCCC(=O)O",
    "AUC of viability dose-response curve": 453
  },
  {
    "Compound": "O=C(Nc1cccc(Br)c1)c1cccc([S+](=O)([O-])N2CCCCCC2)c1",
    "AUC of viability dose-response curve": 464
  },
  {
    "Compound": "COC(=O)Nc1nc2ccc([S+]([O-])c3ccccc3)cc2[nH]1 (stereo not given)",
    "AUC of viability dose-response curve": 461
  },
  {
    "Compound": "N#CC[C@H](C1CCCC1)n1cc(-c2ncnc3[nH]ccc23)cn1",
    "AUC of viability dose-response curve": 372
  },
  {
    "Compound": "O=C(NCC1CCOCC1)c1cnc(Nc2ccc(Cl)cc2Cl)nc1C(F)(F)F",
    "AUC of viability dose-response curve": 465
  },
  {
    "Compound": "CCOC(=O)[C@H](CCc1ccccc1)N[C@H]1CS[C@H](c2cccs2)CN(CC(=O)O)C1=O.Cl",
    "AUC of viability dose-response curve": 421
  },
  {
    "Compound": "COC(=O)[C@H](c1ccccc1Cl)N1CCc2sccc2C1",
    "AUC of viability dose-response curve": 427
  },
  {
    "Compound": "C[C@@H]1C(=O)OC2[C@H](O)[C@]34[C@H]5C[C@@H](C(C)(C)C)[C@]36[C@@H](OC(=O)[C@@H]6O)O[C@@]4(C(=O)O5)[C@]21O (stereo not given in full)",
    "AUC of viability dose-response curve": 450
  },
  {
    "Compound": "CN(C)CCCN\\C1=C\\2C(=O)N(C)C(=O)\\N=C2N(C)C3=C1C=CC=C3",
    "AUC of viability dose-response curve": 429
  },
  {
    "Compound": "CC(C)(O)C(=O)Nc1ccc([N+](=O)[O-])c(C(F)(F)F)c1",
    "AUC of viability dose-response curve": 438
  },
  {
    "Compound": "Cc1ccc(-c2cc(C(F)(F)F)nn2-c2ccc([S+](N)(=O)[O-])cc2)cc1",
    "AUC of viability dose-response curve": 468
  },
  {
    "Compound": "N#Cc1ccnc(N2C(=O)CC[C@H]2C(=O)N(c2cncc(F)c2)[C@H](C(=O)NC2CC(F)(F)C2)c2ccccc2Cl)c1",
    "AUC of viability dose-response curve": 361
  }
]
